Origin of values: patent US20140206681A1

system.tested: BTK enzyme (recombinant full-length BTK, hBTK) (Homo sapiens, UniProt Q06187)
Construct: recombinant protein from baculovirus-transfected Sf9 cells: full-length BTK, 6HIS-tag cleaved; 6HIS (cleaved yes); made in house; host or cells: baculovirus-transfected Sf9 cells
Sequence (Q06187 whole entry): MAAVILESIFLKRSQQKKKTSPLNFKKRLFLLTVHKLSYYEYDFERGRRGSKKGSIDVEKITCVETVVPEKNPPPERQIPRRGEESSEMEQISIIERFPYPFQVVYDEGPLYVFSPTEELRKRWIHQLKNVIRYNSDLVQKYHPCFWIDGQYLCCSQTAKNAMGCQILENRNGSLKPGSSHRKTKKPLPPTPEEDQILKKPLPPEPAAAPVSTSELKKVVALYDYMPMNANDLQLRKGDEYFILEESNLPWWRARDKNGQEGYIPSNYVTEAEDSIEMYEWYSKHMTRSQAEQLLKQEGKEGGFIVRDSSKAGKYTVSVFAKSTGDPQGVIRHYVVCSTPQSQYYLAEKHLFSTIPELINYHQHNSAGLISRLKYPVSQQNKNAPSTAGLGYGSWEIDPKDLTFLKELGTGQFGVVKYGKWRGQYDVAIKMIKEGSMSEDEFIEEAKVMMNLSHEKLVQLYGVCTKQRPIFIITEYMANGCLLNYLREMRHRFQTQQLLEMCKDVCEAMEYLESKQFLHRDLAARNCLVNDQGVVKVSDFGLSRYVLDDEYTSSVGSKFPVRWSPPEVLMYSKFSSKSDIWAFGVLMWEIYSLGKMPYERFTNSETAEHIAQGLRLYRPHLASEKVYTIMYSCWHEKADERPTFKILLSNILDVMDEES
assay.notes: BTK enzyme activity assay, LANCE TR-FRET
Type: biochemical
assay.conditions: 50 pM hBTK, 2 μM biotin-A5-peptide, 25 μM ATP; 60 min compound & enzyme incubation; read-out: IC50 BTK activity value
quantity.name: IC50 (nM)

// solved cases for IC50 follow
| smi | IC50 [nM] |
| --- | --- |
| C#CCCOc1cc(C(=O)Nc2cc(C(F)(F)F)ccn2)ccc1-c1nc([C@@H]2CC[C@H]3CCC(=O)N3C2)n2ccnc(N)c12 | 0.75 |
| Nc1nccn2c([C@@H]3CC[C@H]4COCCN4C3)nc(-c3ccc(C(=O)Nc4cc(C(F)(F)F)ccn4)cc3)c12 | 0.3 |
| Nc1nccn2c([C@@H]3CC[C@H]4CN(CC(=O)O)CC(=O)N4C3)nc(-c3ccc(C(=O)Nc4cc(C(F)(F)F)ccn4)cc3)c12 | 0.22 |
| Cn1nc(NC(=O)c2ccc(-c3nc([C@@H]4CC[C@H]5CCC(=O)N5C4)n4c(Cl)cnc(N)c34)c(Cl)c2)cc1C(F)(F)F | 1.9 |
| C=C[C@H]1OC(=O)N2C[C@H](c3nc(-c4ccc(C(=O)Nc5cc(C(F)(F)F)ccn5)cc4)c4c(N)nccn34)CC[C@@H]12 | 16.8 |
| Cc1cc(-c2nc([C@@H]3CC[C@H]4CCC(=O)N4C3)n3ccnc(N)c23)ccc1C(=O)Nc1cc(C(F)(F)F)ccn1 | 0.41 |
| Nc1nccn2c([C@@H]3CC[C@H]4CCC(=O)N4C3)nc(-c3ccc(C(=O)Nc4cc(C(F)(F)F)cc(C5CCC5)n4)cc3)c12 | 766 |
| CCOc1cc(C(=O)Nc2cc(C(F)(F)F)n(C)n2)ccc1-c1nc([C@@H]2CC[C@H]3CCC(=O)N3C2)n2c(Cl)cnc(N)c12 | 0.23 |
| Nc1nccn2c([C@@H]3CC[C@H]4CN(CCO)CC(=O)N4C3)nc(-c3ccc(C(=O)Nc4cc(C(F)(F)F)ccn4)cc3)c12 | 0.13 |
| Cn1nc(NC(=O)c2cc(OC3CC3)c(-c3nc([C@@H]4CC[C@H]5CCC(=O)N5C4)n4c(Cl)cnc(N)c34)cc2F)cc1C(F)(F)F | 1.8 |

P. Nc1nccn2c([C@@H]3CC[C@H]4CCC(=O)N4C3)nc(-c3ccc(C(=O)Nc4cc(C(F)(F)F)ccn4)c(F)c3)c12
Q. CC1(C)OC(=O)N2C[C@H](c3nc(-c4ccc(C(=O)Nc5cc(C(F)(F)F)ccn5)cc4)c4c(N)nccn34)CC[C@H]21
R. Nc1nccn2c([C@@H]3CC[C@H]4C[C@H](O)C(=O)N4C3)nc(-c3ccc(C(=O)Nc4cc(C(F)(F)F)ccn4)cc3)c12
Query string: Arrange the 3 entries by IC50 so the values rise. Please list each label once, in the requested order.
Result string: R, Q, P

====

Test system: HeLa cells
assay.notes: [3H]Adenosine uptake functional cellular assay
Type: cell-based
assay.conditions: Homo sapiens, HeLa, accumulation of [3H]adenosine into HeLa cells; compound range 10 μM to […]; read-out: Adenosine uptake inhibition IC50
quantity.name: IC50 (nM)

P. CCNC(=O)Nc1nccn2c([C@@H]3CC[C@H]4CCC(=O)N4C3)nc(-c3ccc(C(=O)Nc4cc(C(F)(F)F)ccn4)cc3)c12
Q. Nc1nccn2c([C@@H]3CC[C@H]4CCC(=O)N4C3)nc(-c3ccc(C(=O)Nc4cc(C(F)(F)F)ccn4)c(Cl)c3)c12
Query string: I'm curious, which of these has a smaller IC50 number: P or Q ? Reply briefly: the label of your chosen item.
Result string: P
(P: 19.2 nM, Q: 88 nM)
